- study_system: acyl-CoA:cholesterol O-acyltransferase (ACAT) (Oryctolagus cuniculus)
- Construct: The intestinal mucosa of a white rabbit was homogenized and microsomal fraction was obtained by stepwise centrifugation; from tissue; host or cells: intestinal mucosa of white rabbit, microsomal fraction
- test_description: Inhibitory activity on acyl-CoA:cholesterol O-acyltransferase (ACAT), intestinal mucosa microsomal fraction, [1-14C]oleyl-CoA incorporation into cholesterol esters
- Format: biochemical, white rabbit
- measurement_parameters: 0.01 μM; read-out: Inhibition rate %
readout: inhibition at 0.01 µM (%)

Past entries and their recorded results:
CCCCCCc1ccc2oc(NC(=O)Nc3c(C(C)C)cccc3C(C)C)c(-c3ccccc3Cl)c2c1 ... 63.5
Cc1cc2sc(NC(=O)Nc3c(C)cccc3C(C)C)c(-c3ccccc3Cl)c2cc1C ... 67
Cc1ccccc1-c1c(NC(=O)Nc2c(C)cccc2C(C)C)sc2cc3c(cc12)CCC3 ... 69.2

I = CCc1ccc2oc(NC(=O)Nc3c(C(C)C)cccc3C(C)C)c(-c3ccccc3Cl)c2c1
II = O=C(Nc1ccc(F)cc1F)Nc1sc2cc3c(cc2c1-c1ccc(Cl)cc1Cl)CCC3
Returns: the label, I or II , whose recorded inhibition at 0.01 µM is the lower number. // return label of chosen record
II
(II: 36.2%, I: 73.3%)

a = Cc1cccc(C)c1NC(=O)Nc1sc2cc3c(cc2c1-c1ccccc1Cl)CCC3
b = CCc1cccc(CC)c1NC(=O)Nc1oc2ccc(Cl)cc2c1-c1ccccc1SC
Returns: the label, a or b , whose recorded inhibition at 0.01 µM is the lower number. // return label of chosen record
a
(a: 60.4%, b: 91.6%)

P = CCc1cccc(CC)c1NC(=O)Nc1oc2cc(C)c(C)cc2c1-c1ccccc1Cl
Q = CCc1ccc2oc(NC(=O)Nc3ccc(F)cc3F)c(-c3ccccc3Cl)c2c1
Returns: the label, P or Q , whose recorded inhibition at 0.01 µM is the lower number. // return label of chosen record
Q
(Q: 41.2%, P: 74.7%)

A = CSc1ccccc1-c1c(NC(=O)Nc2c(C(C)C)cccc2C(C)C)oc2ccc(Cl)cc12
B = CCc1cccc(CC)c1NC(=O)Nc1sc2cc3c(cc2c1-c1ccccc1C(F)(F)F)CCC3
Returns: the label, A or B , whose recorded inhibition at 0.01 µM is the lower number. // return label of chosen record
B

* * *

- study_system: acyl-CoA:cholesterol O-acyltransferase (ACAT) (Oryctolagus cuniculus, UniProt G1SFD9)
- Construct: The intestinal mucosa of a white rabbit was homogenized and microsomal fraction was obtained by stepwise centrifugation; from tissue; host or cells: intestinal mucosa of white rabbit, microsomal fraction
- Sequence (G1SFD9 1-524): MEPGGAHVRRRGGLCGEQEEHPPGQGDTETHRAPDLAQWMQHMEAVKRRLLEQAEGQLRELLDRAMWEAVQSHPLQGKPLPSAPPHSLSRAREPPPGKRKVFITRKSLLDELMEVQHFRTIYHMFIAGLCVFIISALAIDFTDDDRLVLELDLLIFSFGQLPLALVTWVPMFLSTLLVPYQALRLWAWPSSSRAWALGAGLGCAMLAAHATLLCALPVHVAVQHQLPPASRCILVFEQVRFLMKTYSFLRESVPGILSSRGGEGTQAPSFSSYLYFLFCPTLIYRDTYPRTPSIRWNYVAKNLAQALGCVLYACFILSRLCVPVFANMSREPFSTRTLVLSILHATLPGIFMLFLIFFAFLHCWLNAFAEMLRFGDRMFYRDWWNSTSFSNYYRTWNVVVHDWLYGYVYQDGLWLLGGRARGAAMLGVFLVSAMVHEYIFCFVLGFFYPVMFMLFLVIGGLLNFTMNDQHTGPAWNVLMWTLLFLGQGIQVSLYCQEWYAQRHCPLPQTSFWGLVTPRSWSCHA
- test_description: Inhibitory activity on acyl-CoA:cholesterol O-acyltransferase (ACAT), intestinal mucosa microsomal fraction, [1-14C]oleyl-CoA incorporation into cholesterol esters
- Format: biochemical, white rabbit
- measurement_parameters: 0.01 μM; read-out: Inhibition rate %
readout: inhibition at 0.01 µM (%)

Past entries and their recorded results:
Cc1cc(C)c2oc(NC(=O)Nc3c(Cl)cccc3Cl)c(-c3ccccc3Cl)c2c1 [Compound 49] ... 51.9
CCc1cccc(CC)c1NC(=O)Nc1oc2ccc(F)cc2c1-c1ccccc1Cl [Compound 1] ... 49.8
CCc1cccc(CC)c1NC(=O)Nc1sc2cc(OC)c(OC)cc2c1-c1ccccc1Cl [Compound 102] ... 43.3

a = O=C(Nc1ccccc1C(F)(F)F)Nc1oc2ccc(Cl)cc2c1-c1ccccc1Cl [Compound 7]
b = Cc1cc(C)c2oc(NC(=O)Nc3c(F)cc(F)cc3F)c(-c3ccccc3Cl)c2c1 [Compound 48]
c = CC(C)c1cccc(C(C)C)c1NC(=O)Nc1oc2ccc(Cl)cc2c1-c1ccccc1F [Compound 58]
d = Cc1ccccc1NC(=O)Nc1oc2ccc(Cl)cc2c1-c1ccccc1Cl [Compound 5]
Sort low-to-high on inhibition at 0.01 µM, please. Order the labels as requested and list them.
b, d, a, c
(b: 6.8%, d: 15.4%, a: 37.2%, c: 69.2%)
